- System: CCRF-CEM
- PROCEDURE_TEXT: NCI tumour cell line growth inhibition, 48 h
Calls of active or inactive are those of the source. Rule as the data show it: active = GI50 up to about 1.1 µM and inactive = higher.
Respond using exactly one of the listed classes: Y (active), N (inactive)

CC1=NN(C(=O)c2ccccc2O)C(=O)/C1=C/c1ccco1 ... N
C(=C/CCCN1O[C@@H](CCCCCCCCc2cccnc2)[C@H]2CCC[C@H]21)/CCCCCCCCCc1cccnc1 ... N
CN1CCCNCCN(CCc2ccccn2)CCCN(C)CC1 ... N
CC(=O)N(C(=O)CC(=O)N1N=C(c2ccccc2)C(/N=N/c2ccccc2[N+](=O)[O-])C1=O)c1ccc(Cl)cc1 (stereo unspecified) ... N
CC(=O)O/N=C(Cl)/C(Cl)=N/OC(C)=O ... N
CC1(C)C(O)C[C@]23CCC[C@](C)(C[C@@H](O)C12)C3 (stereo partly specified) ... N

(Q) Can you look up the reported call for CCOP(=O)(OCC)Oc1c(OC)c2[nH]c(C(=O)OC)cc2c2c(C(=O)O)c[nH]c12 for me?
(A) N

(Q) Would you mind telling me which call this test gave COc1cc2c(cc1C)NC(=O)/C2=C/c1c(Cl)n(C)c2ccccc12 ?
(A) N

(Q) // return assay outcome for Cc1ccccc1-n1c(=O)nc2n(-c3ccc(C(C)(C)C)cc3)c3ccccc3cc-2c1=O
(A) N
